# Test system: MS2 coat protein
# run_description: apparent KD of MS2 coat protein; higher = weaker reporter binding
# particulars: Eterna round: R107; input ligand: tryptophan 2.4 mM
quantity_measured: apparent KD of MS2 coat protein (nM)
A number alone suffices; assume nM.

INSERT INTO assay_data (biosequence, quantity_measured, result) VALUES
  ('UGGGUAGCAUAGCUUGAUAGCUACACUGAAGGAGCGAGGAUAACCUCAGGUAGGUCGCAGACAUGAGGAUCACCCAUGUAGAUGG [Same State Arginine A GF18]', 'apparent KD of MS2 coat protein', 276),
  ('UAAAACAUGAGGAUCACCCAUGUAAUUGAUACCAGAGUGAUGAUCCUCCCUUGGCAGCAAAUAACGCAUUGAUUACAAUGCGAAA [Mat - Same State Theophlline A - Mod of Eli - D27]', 'apparent KD of MS2 coat protein', 35),
  ('GGAUAGGACACGGCCGCCACUAGCUAGGAUACUAGCAACAUUUCCUCACAAGAGGAUCACCCUUGUAGGACCGGGUGUCCUAUCG', 'apparent KD of MS2 coat protein', 139),
  ('GUCUGAGUCUGAAGGAGCGACAUGAGGAUCACCCAUGUCUCCCGUUAUGGGAGUUCCUUAGGUCAGGUAGGUCGCAGACUCAGAC [#1 Exclusion - Arginine B Attempt #26 (Inspired by Omei)]', 'apparent KD of MS2 coat protein', 108),
  ('UUCAGCUAGUCGGCCGCCACUACAUGAGGAUCACCCAUGUAGGUCCACACUGCUUCGGCAGUGAGUAGGACCGGGACUAGCUGAG', 'apparent KD of MS2 coat protein', 15.4),
  ('GUAGGUCUCAUGGGUGGACCUACACUGGAAGGAGCGAGCGAAAGCUCAGGUAGGUCGCCAGAAACAUGAGGAUCACCCAUGUAAU [(A)''''-(M)''-(A)''-(Arg1)-(Arg2)-(M1)-(M2)_Design1]', 'apparent KD of MS2 coat protein', 320),
  ('ACCCAUAAUUGGGCGGGUGGAUUGAGUGAUACCAGUCGUAUACAUGACCCUUGGCAGCACCGACAUGAGGAUCACCCAUGUGCCA [Same State Theophylline A GF23]', 'apparent KD of MS2 coat protein', 46),
  ('AUACAUGAGGAUCACCCAUGUUAUAGUGAAGGAGCGACAUUUAUGUCAGGUAGGUCGCACUGUUGUUUAAUGAUUCUUGGAUCUU [#20 Exclusion - Arginine A]', 'apparent KD of MS2 coat protein', 15.1);

Any idea what its apparent KD of MS2 coat protein is? The sequence is AUCGGCAGAAAAGAUACCAGAGUAAUACACAACAUGAGGAUCACCCAUGUACGGACAAUCCUCCCUUGGCAGCUUGUAACAGUAU [theeternabot_sameState_MS2_Theo_B_32]
48

Any idea what its apparent KD of MS2 coat protein is? The sequence is CGGUUUGUGAUGGAUACCAGCAGAGAAAACGUUUAUCCUAACAUGAGGAUCACCCAUGUAUGCCCUUGGCAGCUGUUGUGGGCUG [8.U]
43.5
